GI50 values by entry
Tested on: DU-145
Experiment: NCI tumour cell line growth inhibition, 48 h
Activity calls are given as the source filed them. Rule as the data show it: active = GI50 up to about 1.1 µM and inactive = higher.

Compound	GI50
CCOC(=O)/C(C#N)=C/c1ccc(SCc2ccco2)c([N+](=O)[O-])c1	> 100 µM (inactive)
COc1ccc2c(c1)CCc1c-2n(CCN2CCOCC2)c2ccc(OC)cc12	> 100 µM (inactive)
c1ccc2c3nnc(c2c1)SCCSCCCSCCS3	> 100 µM (inactive)
Cc1cc2c3ccccc3n(C)c2c2c1C(=O)C=CC2=O	21.7 µM (inactive)
OCCN(CCO)c1nc(N2CCCCC2)c2nc(N(CCO)CCO)nc(N3CCCCC3)c2n1	48.8 µM (inactive)

Input line: Could you share what GI50 was measured for `Cc1ccc(/N=N/NCCCCN)cc1` , tested on DU-145?
Output line: > 100 µM (inactive)

Input line: Moving on to `CCC(=O)Oc1ccc2c(c1)c(=O)c1c(NCCCN(C)C)ccc3nnn2c31`
Output line: 1.04 µM (active)

Input line: Moving on to C=C1C2CCC3C4(C)CCCC(C)(C(=O)O)C4CCC3(C2)C1OC(=O)/C(C)=C/C (configuration not stated)
Output line: 42.3 µM (inactive)

----------
GI50 values by entry
Test system: T47D
Experiment: NCI tumour cell line growth inhibition, 48 h
Activity calls are given as the source filed them. No stated cut-off is given here; in the data, active = GI50 up to about 1.1 µM and inactive = higher.

Input line: Recorded GI50 for OC(c1ccccc1)(c1cccnc1)C(O)(c1ccccc1)c1cccnc1 (centres undefined) , please?
Output line: > 100 µM (inactive)

Input line: Moving on to `Nc1nc(Nc2ccccc2)c2[nH]cnc2n1`
Output line: > 100 µM (inactive)

Input line: Moving on to CO[C@H]1C[C@@H]2CC[C@@H](C)[C@@](O)(O2)C(=O)C(=O)N2CCCC[C@H]2C(=O)O[C@H]([C@H](C)C[C@@H]2CC[C@@H](OC(=O)C(C)(CO)CO)[C@H](OC)C2)CC(=O)[C@H](C)/C=C(\C)[C@@H](O)[C@@H](OC)C(=O)[C@H](C)C[C@H](C)/C=C/C=C/C=C/1C [TEMSIROLIMUS]
Output line: 0.000995 µM (active)

Input line: Moving on to CC1CC/C(=C\c2ccc(Cl)cc2)C2OC(N)=C(C#N)C(c3ccc(Cl)cc3)=C12 (centres undefined)
Output line: 0.442 µM (active)

Input line: Moving on to CC(=O)Nc1cc([As](=O)(O)O)ccc1O [ACETARSONE]
Output line: > 100 µM (inactive)

Input line: Moving on to `CCc1ccccc1NC(=O)C(=O)CC(=O)c1sc(Nc2ccccc2Cl)nc1C`
Output line: 35.7 µM (inactive)

Input line: Moving on to `Nc1nc(SCCc2ccccc2)c2nc[nH]c2n1`
Output line: 40.9 µM (inactive)

Input line: Moving on to `CCOC(=O)CCc1c(C(=O)OCC)[nH]c(/C=C2\NC(=O)C(C)=C2CC)c1C`
Output line: 10.1 µM (inactive)

Input line: Moving on to COc1cc(C2c3cc4c(cc3[C@H](OCCN(C)C)[C@@H]3COC(=O)C23)OCO4)cc(OC)c1O (some centres undefined)
Output line: 0.369 µM (active)

Input line: Moving on to `CC(=O)Nc1nc2c(=O)c3ccccc3sc2s1`
Output line: > 100 µM (inactive)
